compounds and their reported pIC50
# ASSAY_SYSTEM: FGFR3 kinase (Homo sapiens (Human), UniProt P22607, K650E)
# Sequence (P22607 23-806 K650E): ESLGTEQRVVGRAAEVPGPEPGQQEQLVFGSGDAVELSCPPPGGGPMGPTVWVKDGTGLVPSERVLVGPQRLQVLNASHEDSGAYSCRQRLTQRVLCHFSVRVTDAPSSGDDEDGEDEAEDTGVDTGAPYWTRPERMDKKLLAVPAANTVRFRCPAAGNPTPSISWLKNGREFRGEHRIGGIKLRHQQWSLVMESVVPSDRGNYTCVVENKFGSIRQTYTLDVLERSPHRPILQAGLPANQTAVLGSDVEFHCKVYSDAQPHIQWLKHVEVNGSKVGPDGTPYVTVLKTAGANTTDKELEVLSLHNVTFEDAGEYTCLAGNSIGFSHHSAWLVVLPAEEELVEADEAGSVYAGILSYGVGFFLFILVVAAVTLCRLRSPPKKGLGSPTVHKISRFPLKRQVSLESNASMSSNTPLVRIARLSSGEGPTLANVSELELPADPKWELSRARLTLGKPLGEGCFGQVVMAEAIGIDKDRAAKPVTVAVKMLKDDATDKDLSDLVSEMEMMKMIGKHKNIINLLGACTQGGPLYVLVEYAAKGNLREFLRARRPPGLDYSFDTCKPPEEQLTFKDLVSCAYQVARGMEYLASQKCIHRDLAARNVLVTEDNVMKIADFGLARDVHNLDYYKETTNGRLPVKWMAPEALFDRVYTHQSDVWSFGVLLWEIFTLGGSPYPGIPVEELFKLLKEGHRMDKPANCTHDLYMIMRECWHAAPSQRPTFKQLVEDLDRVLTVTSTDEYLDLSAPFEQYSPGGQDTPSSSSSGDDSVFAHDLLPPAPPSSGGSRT
# ASSAY_INFO: FGFR3 kinase inhibition (protein kinase activity assays)
# Format: biochemical
# CONDITION_CONTEXT: read-out: rating (FGFR3 kinase IC50)
pIC50: −log10 of the molar value.

Look over these answered cases.
// pIC50 lookup, key: CCN1CCN(Cc2ccc(NC(=O)c3ccc(-c4c(F)c(OC)cc(OC)c4F)c4nccnc34)cn2)CC1
> 7.00

Now try COc1cc(OC)c(Cl)c(-c2ccc(C(=O)Nc3cnc[nH]3)c3ncccc23)c1Cl .
6.30 to 7.00

Now try COc1cc(OC)c(Cl)c(-c2ccc(C(=O)Nc3nnc[nH]3)c3nccnc23)c1Cl .
4.30 to 6.30

Now try COc1cc(OC)cc(-c2ccc(C(=O)Nc3ccc(CN4CCNCC4)cn3)c3nccnc23)c1 .
4.30 to 6.30

Now try COc1cc(OC)c(Cl)c(-c2ccc(C(=O)Nc3ccc(CN4CCN(C)CC4)nc3)c3ncccc23)c1Cl .
6.30 to 7.00

New cases:
// pIC50 lookup, key: COc1cc(OC)c(Cl)c(-c2ccc(C(=O)Nc3ccc(OCCN(C)C)cc3)c3nccnc23)c1Cl
> 7.00

Now try CCN1CCN(c2ccc(NC(=O)c3ccc(-c4c(C)cccc4C)c4nccnc34)cc2)CC1 .
4.30 to 6.30

Now try COc1cc(OC)c(Cl)c(-c2ccc(C(=O)Nc3ccn(CCN(C)C)c3)c3nccnc23)c1Cl .
4.30 to 6.30

----------
molecules and their reported IC50
# ASSAY_SYSTEM: FGFR3 kinase (Homo sapiens (Human), UniProt P22607, K650E)
# ASSAY_INFO: FGFR3 kinase inhibition (protein kinase activity assays)
# Type: biochemical
# CONDITION_CONTEXT: read-out: rating (FGFR3 kinase IC50)

// IC50 lookup, key: COc1cc(OC)c(Cl)c(-c2ccc(C(=O)Nc3ccc(N4CCN(C(C)C)CC4)nc3)c3nccnc23)c1Cl
< 100 nM

Now try COc1ccc(Cl)c(-c2ccc(C(=O)Nc3ccc(OCCN(C)C)cc3)c3nccnc23)c1 .
500 to 50000 nM

Now try COc1cc(OC)c(Cl)c(-c2ccc(C(=O)Nc3ccc(CN(C)CCN(C)C)cn3)c3nccnc23)c1Cl .
< 100 nM

Now try COc1cc(OC)c(F)c(-c2ccc(C(=O)Nc3ccc(CN4CCS(=O)(=O)CC4)cn3)c3nccnc23)c1F .
< 100 nM

Field: next molecule
// IC50 lookup, key: CCN1CCN(Cc2ccc(NC(=O)c3ccc(-c4c(Cl)c(OC)cc(OC)c4Cl)c4cccnc34)nc2)CC1
100 to 500 nM

----------
# ASSAY_SYSTEM: FGFR3 kinase (Homo sapiens (Human), UniProt P22607, K650E)
# ASSAY_INFO: FGFR3 kinase inhibition (protein kinase activity assays)
# Assay type: biochemical
# CONDITION_CONTEXT: read-out: rating (FGFR3 kinase IC50)
compounds and their reported IC50

// IC50 lookup, key: CCN1CCN(c2ccc(NC(=O)c3ccc(-c4c(Cl)c(OC)cc(OC)c4Cl)c4cccnc34)cc2)CC1
< 100 nM

Now try COc1cc(OC)c(Cl)c(-c2ccc(C(=O)Nc3nccn3Cc3ccccc3)c3ncccc23)c1Cl .
500 to 50000 nM

Now try CCN1CCN(c2ccc(NC(=O)c3ccc(-c4c(Cl)c(OC)cc(OC)c4Cl)c4nccnc34)cc2)CC1 .
< 100 nM

New cases:
// IC50 lookup, key: COc1cc(OC)c(Cl)c(-c2ccc(C(=O)Nc3ccc(CN4CCS(=O)(=O)CC4)cn3)c3nccnc23)c1Cl
100 to 500 nM
